- assaySystem: T1, human CD3 on CD3+ Jurkat cells (human, UniProt P07766 23-207)
- T1 construct: whole, on cells; Native CD3 complex on cells; the other CD3 chains are not specified for this assay; also called Human CD3+ Jurkat
- T1 sequence (P07766 23-207): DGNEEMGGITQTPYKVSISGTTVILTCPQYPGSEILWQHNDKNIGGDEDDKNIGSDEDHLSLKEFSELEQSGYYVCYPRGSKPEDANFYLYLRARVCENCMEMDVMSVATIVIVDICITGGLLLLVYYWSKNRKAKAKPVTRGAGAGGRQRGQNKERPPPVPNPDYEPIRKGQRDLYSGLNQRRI
- assayOverview: flow cytometry on CD3+ Jurkat cells, ratio of MFI at pH 6.0 to pH 7.4
Known MFI pH 6.0/MFI pH 7.4 of a selection of binders
measuredProperty: MFI pH 6.0/MFI pH 7.4

INSERT INTO assay_data (binder, value) VALUES
  ('SAD10320_P01_B01 (ADI-48643) (antibody, V domains shown, IgG; also called Ab46) VH: QVQLVQSGAEVKKPGASVKVSCKASGFNIKDYYMHWVRQAPGQRLEWMGWIDLENANTIYDAKFQGRVTITRDTSASTAYMELSSLRSEDTAVYYCARDAYGHIFYDVWGQGTLVTVSS VL: DIVMTQSPDSLAVSLGERATINCKSSQSLLNARTGKNYLAWYQQKPGQPPKLLIYWASTRESGVPDRFSGSGSGTDFTLTISSLQAEDVAVYYCKQSYVHRTFGGGTKVEIK', 15.9),
  ('SAD10319_P01_A01 (ADI-48619) (antibody, V domains shown, IgG; also called Ab229) VH: QVQLVQSGAEVKKPGASVKVSCKASGYTFASYAMHWVRQAPGQRLEWMGWINPDTGNTVYSQKFQGRVTITRDTSASTAYMELSSLRSEDTAVYYCARDAYHHYFYDVWGQGTLVTVSS VL: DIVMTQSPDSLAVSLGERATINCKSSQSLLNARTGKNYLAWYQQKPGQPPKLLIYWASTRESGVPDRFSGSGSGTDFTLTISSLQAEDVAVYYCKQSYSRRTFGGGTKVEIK', 13.5);
